Reference source: patent US20250152746A1

- System: PCSK9 gene
- TEST_NAME: PCSK9 gRNA/SpCas9 editing in primary human hepatocytes (Tables 2, 4)
- Format: cell-based
- CONDITION_PARAMETERS: 2500 ng/RNA/mL; SpCas9 mRNA MS002 1:1 by weight
In the oligonucleotide strings, read from the 5' end, every base follows the letter of its sugar. An asterisk marks phosphorothioate; unmarked linkages are phosphodiester. Other units and linkages are bracketed, terminal groups are in braces. A string of capitals states the bases alone. m = 2'-O-methyl; r = 2'-OH (RNA)
MEASUREMENT_TYPE: Human Primary Hepatocyte Editing % 2500

molecule="GA184: PCSK9 gRNA; protospacer ATGGAAGACATGCAGGATCT (SEQ ID NO: 178) (nucleic acid) guide: mA*mU*mG*rGrArArGrArCrArUrGrCrArGrGrArUrCrUrGrUrUrUrUrArGrArGrCrUrArGrArArArUrArGrCrArArGrUrUrArArArArUrArArGrGrCrUrArGrUrCrCrGrUrUrArUrCrArArCrUrUrGrArArArArArGrUrGrGrCrArCrCrGrArGrUrCrGrGrUrGrCrU*mU*mU*mU" measurement_type="Human Primary Hepatocyte Editing % 2500" test_result=29.55%
molecule="GA229: PCSK9 gRNA; protospacer GTCGTGCTGGTCACCGCTGC (SEQ ID NO: 223) (nucleic acid, sugars from the 5' end m3 r94 m3, linkages s3 o93 s3 (s phosphorothioate, o phosphodiester), T or U not given here) guide: GUCGUGCUGGUCACCGCUGCGUUUUAGAGCUAGAAAUAGCAAGUUAAAAUAAGGCUAGUCCGUUAUCAACUUGAAAAAGUGGCACCGAGUCGGUGCUUUU" measurement_type="Human Primary Hepatocyte Editing % 2500" test_result=30.41%
molecule="GA221: PCSK9 gRNA; protospacer TCATGGCACCCACCTGGCAG (SEQ ID NO: 215) (nucleic acid, sugars from the 5' end m3 r94 m3, linkages s3 o93 s3 (s phosphorothioate, o phosphodiester), T or U not given here) guide: UCAUGGCACCCACCUGGCAGGUUUUAGAGCUAGAAAUAGCAAGUUAAAAUAAGGCUAGUCCGUUAUCAACUUGAAAAAGUGGCACCGAGUCGGUGCUUUU" measurement_type="Human Primary Hepatocyte Editing % 2500" test_result=29.35%
molecule="GA163: PCSK9 gRNA; protospacer CGTCCTCGTCCTCCTGCGCA (SEQ ID NO: 157) (nucleic acid, sugars from the 5' end m3 r94 m3, linkages s3 o93 s3 (s phosphorothioate, o phosphodiester), T or U not given here) guide: CGUCCUCGUCCUCCUGCGCAGUUUUAGAGCUAGAAAUAGCAAGUUAAAAUAAGGCUAGUCCGUUAUCAACUUGAAAAAGUGGCACCGAGUCGGUGCUUUU" measurement_type="Human Primary Hepatocyte Editing % 2500" test_result=29.32%
molecule="GA160: PCSK9 gRNA; protospacer GCCTTGCGTTCCGAGGAGGA (SEQ ID NO: 154) (nucleic acid, sugars from the 5' end m3 r94 m3, linkages s3 o93 s3 (s phosphorothioate, o phosphodiester), T or U not given here) guide: GCCUUGCGUUCCGAGGAGGAGUUUUAGAGCUAGAAAUAGCAAGUUAAAAUAAGGCUAGUCCGUUAUCAACUUGAAAAAGUGGCACCGAGUCGGUGCUUUU" measurement_type="Human Primary Hepatocyte Editing % 2500" test_result=23.3%
molecule="GA195: PCSK9 gRNA; protospacer ACCACCGGGAAATCGAGGGC (SEQ ID NO: 189) (nucleic acid, sugars from the 5' end m3 r94 m3, linkages s3 o93 s3 (s phosphorothioate, o phosphodiester), T or U not given here) guide: ACCACCGGGAAAUCGAGGGCGUUUUAGAGCUAGAAAUAGCAAGUUAAAAUAAGGCUAGUCCGUUAUCAACUUGAAAAAGUGGCACCGAGUCGGUGCUUUU" measurement_type="Human Primary Hepatocyte Editing % 2500" test_result=12.57%
molecule="GA224: PCSK9 gRNA; protospacer GGCCGCTGACCACCCCTGCC (SEQ ID NO: 218) (nucleic acid, sugars from the 5' end m3 r94 m3, linkages s3 o93 s3 (s phosphorothioate, o phosphodiester), T or U not given here) guide: GGCCGCUGACCACCCCUGCCGUUUUAGAGCUAGAAAUAGCAAGUUAAAAUAAGGCUAGUCCGUUAUCAACUUGAAAAAGUGGCACCGAGUCGGUGCUUUU" measurement_type="Human Primary Hepatocyte Editing % 2500" test_result=13.02%
